system: Rattus norvegicus; test: In vivo Sterol lowering activity at dose as 0.01 % of the diet; type: functional
Give Diet for every item shown.

INPUT: What Diet value was documented for this compound, `O=C(O)c1ccc(NCCCCCCCCCC/C=C/c2cccs2)cc1` ?
OUTPUT: <84%

INPUT: // query Diet value for entry `C=C(CCCCCCCCCC)CCCCCNc1ccc(C(=O)O)cc1`
OUTPUT: <81%

INPUT: Fill in the blank: the reported Diet of CCCCCCCCCCCCCCCCNc1ccc(C(=O)O)cc1 [CETABEN] is ____.
OUTPUT: <72%

INPUT: I have this compound here, `CCCCCCCCCCCCCCCCCCNc1ccc(C(=O)[O-])cc1.[Na+]` , and I need its recorded Diet.
OUTPUT: <84%

---

tested on: Rattus norvegicus; assay: In vivo Sterol lowering activity at dose as 0.10 % of the diet.; assay type: functional
Would you kindly list serum sterol, percent of control for each of these molecules?
Provide the reading as a plain figure in %.

INPUT: Return reported serum sterol, percent of control; argument: `Nc1ccccc1CCCNc1ccc(C(=O)O)cc1`
OUTPUT: 84

INPUT: Given the molecule `CCCCCCNc1ccc(C(=O)OCC)cc1` , what is its reported serum sterol, percent of control?
OUTPUT: 87

INPUT: Looking for the measured serum sterol, percent of control of `O=C(O)c1ccc(NCCCCc2cccs2)cc1` , can you help?
OUTPUT: 77

INPUT: Recorded serum sterol, percent of control of `COc1ccccc1CCCNc1ccc(C(=O)O)cc1` , please.
OUTPUT: 110

INPUT: Record request: serum sterol, percent of control value, item `O=[N+]([O-])c1ccc(CCCNc2ccccc2)cc1`
OUTPUT: 87

INPUT: Which measured serum sterol, percent of control value corresponds to `O=C(O)c1ccc(NCCCc2ccc(F)cc2)cc1` ?
OUTPUT: 82

---

test system: Rattus norvegicus; experiment: In vivo Sterol lowering activity at dose as 0.10 % of the diet.; format: functional
Measurement Kind: serum sterol, percent of control (%)
Hi! Could you send only the number? It should be in %, unit omitted.

INPUT: Requested read-out: serum sterol, percent of control. Entry: `O=C(O)c1ccc(NC/C=C/c2ccc(Cl)cc2)cc1`
OUTPUT: 90

INPUT: I have this compound here, `O=C(O)c1ccc(NCCc2ccc(F)cc2)cc1` , and I need its recorded serum sterol, percent of control.
OUTPUT: 91

INPUT: Could you tell me which serum sterol, percent of control is on file for `Cc1ccc(CCC(=O)Nc2ccc(C(=O)O)cc2)cc1` ?
OUTPUT: 91

INPUT: # lookup: serum sterol, percent of control of `CCOC(=O)c1ccc(NCCCc2ccccc2[N+](=O)[O-])cc1`
OUTPUT: 89

INPUT: Could you share which serum sterol, percent of control value was measured for `CCOC(=O)Cc1ccc(NCCCc2ccc(Cl)cc2)cc1` ?
OUTPUT: 91

---

system: Rattus norvegicus; test: In vivo triglyceride lowering activity, dosed at 0.03 % of the diet; assay type: functional
Threshold 60%: serum triglycerides, percent of control strictly smaller gives condition met, otherwise condition not met.

INPUT: hey, is serum triglycerides, percent of control for `CCCCCCCCCCCCNc1ccc(C(=O)[O-])cc1.[Na+]` lower than 60% or not?
OUTPUT: condition met

INPUT: serum triglycerides, percent of control strictly < 60% for this compound? CCCCCCCCCCCCCCCCNc1ccc(C(=O)[O-])cc1.[Na+] [CETABEN SODIUM]
OUTPUT: condition met

INPUT: Dear colleague, could you confirm whether serum triglycerides, percent of control of `Cl.O=C(O)c1ccc(NCCCCCCCCCCCn2ccnc2)cc1` falls below 60%? Thanks.
OUTPUT: condition met

INPUT: Please indicate whether the reported serum triglycerides, percent of control of `O=C(O)c1ccc(NCCCCCCCCCCCCc2cccs2)cc1` is strictly below 60%.
OUTPUT: condition met

INPUT: Find out if reported serum triglycerides, percent of control for `CCCCCCCCCCCCNc1ccc(C(=O)O)cc1` is less than 60%
OUTPUT: condition met

INPUT: In plain terms, does `O=C(O)c1ccc(NCCCc2ccccc2F)cc1` come in under 60% for serum triglycerides, percent of control?
OUTPUT: condition met

INPUT: For this compound, is serum triglycerides, percent of control lower than 60%? `CCOC(=O)c1ccc(NCCCCCCCCCCCn2ccnc2)cc1`
OUTPUT: condition not met

INPUT: In plain terms, does CCOC(=O)C(C)c1ccc(NCCCc2ccc(Cl)cc2)cc1 (stereo not drawn) come in under 60% for serum triglycerides, percent of control?
OUTPUT: condition met

INPUT: Is the reported serum triglycerides, percent of control for `CCCCCCCCc1ccc(CNc2ccc(C(=O)O)cc2)s1` strictly below 60%?
OUTPUT: condition not met

INPUT: serum triglycerides, percent of control strictly < 60% for this compound? `O=C(O)c1ccc(NCCCCCCc2ccc(Cl)cc2)cc1`
OUTPUT: condition not met

INPUT: Record `CCOC(=O)Cc1ccc(NCCCc2ccc(Cl)cc2)cc1` : is its serum triglycerides, percent of control strictly below 60%?
OUTPUT: condition not met

INPUT: I wonder whether `CCOC(=O)c1ccc(NCCCc2cccc(Cl)c2)cc1` has serum triglycerides, percent of control below 60%. Can you tell?
OUTPUT: condition not met

INPUT: Does the reported serum triglycerides, percent of control of the following compound sit strictly below 60%? `O=C(O)c1ccc(NCCCc2ccc(Cl)c(Cl)c2)cc1`
OUTPUT: condition not met

INPUT: Report whether reported serum triglycerides, percent of control is lower than 60% (strictly) for `CCCCCCCCc1ccc(CNc2ccc(C(=O)OCC)cc2)s1`
OUTPUT: condition met

INPUT: Report whether reported serum triglycerides, percent of control is lower than 60% (strictly) for `O=C(O)c1ccc(NCCCc2ccc(Cl)cc2)cc1`
OUTPUT: condition met

INPUT: Dear reviewer, please state whether `CCOC(=O)c1ccc(NCCCCCCCCCCc2ccccc2)cc1` has serum triglycerides, percent of control strictly beneath 60%.
OUTPUT: condition met

INPUT: Dear colleague, could you confirm whether serum triglycerides, percent of control of `O=C(O)c1ccc(C(=O)O)c(NCCCc2ccc(Cl)cc2)c1` falls below 60%? Thanks.
OUTPUT: condition met

INPUT: Does this compound meet the criterion serum triglycerides, percent of control < 60%? `CCOC(=O)c1cccc(NCCCc2ccc(Cl)cc2)c1`
OUTPUT: condition not met

INPUT: hey, is serum triglycerides, percent of control for `O=C(O)c1ccc(NCCCc2cccc(Cl)c2)cc1` lower than 60% or not?
OUTPUT: condition met

INPUT: API: query returns whether the compound falls strictly under 60% in serum triglycerides, percent of control. Query: `CCCCCCCCCCCCCNc1ccc(C(=O)[O-])cc1.[Na+]`
OUTPUT: condition not met

INPUT: Please determine if `O=C(O)c1ccc(NCCCCCCCCc2ccccc2)cc1` is below 60% in terms of serum triglycerides, percent of control.
OUTPUT: condition met

INPUT: Hello, I'm reviewing records and need to know if serum triglycerides, percent of control of `CCOC(=O)c1ccc(NCc2ccccc2)cc1` is below 60%. Could you check?
OUTPUT: condition not met

INPUT: Please state whether serum triglycerides, percent of control is below 60% for `CCOC(=O)c1ccc(NCCCc2ccc(C)cc2)cc1`
OUTPUT: condition met

INPUT: Dear reviewer, please state whether `O=C(O)c1ccc(NCCCc2cccc(Br)c2)cc1` has serum triglycerides, percent of control strictly beneath 60%.
OUTPUT: condition not met
